Sourced from patent US11667636B2

- target-or-system: human MRGPRX2 (Homo sapiens, UniProt Q96LB1)
- Sequence (Q96LB1 1-330): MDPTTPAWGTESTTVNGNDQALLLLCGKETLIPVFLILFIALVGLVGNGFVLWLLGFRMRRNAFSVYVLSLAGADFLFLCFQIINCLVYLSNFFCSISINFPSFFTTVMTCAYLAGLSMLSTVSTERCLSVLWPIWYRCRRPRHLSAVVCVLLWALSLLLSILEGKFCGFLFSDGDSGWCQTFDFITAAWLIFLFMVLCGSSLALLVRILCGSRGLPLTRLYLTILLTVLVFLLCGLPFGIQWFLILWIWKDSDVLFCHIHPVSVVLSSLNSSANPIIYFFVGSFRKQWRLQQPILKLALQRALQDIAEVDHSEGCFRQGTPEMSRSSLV
- assay-info: MRGPRX2 Activity: IP-One HTRF antagonist assay in CHO cells stably expressing human MRGPRX2, versus Cortistatin-14
- experimental-parameters: versus 0.3 uM Cortistatin-14 agonist, IP-1 HTRF, read-out: MRGPR2 Antagonist Activity
pIC50: −log10 of the molar value.
pIC50 by entry:

[[record]]
molecular_string = "COc1ccc(C(=O)N[C@@H]2CCC[C@H](Nc3cccc4sc(C#N)cc34)C2)cc1"
target_or_system = "human MRGPRX2 (Homo sapiens, UniProt Q96LB1)"
endpoint_name = "pIC50"
recorded_result = "6.30 to 7.00"

[[record]]
molecular_string = "O=C(N[C@H]1CC[C@@H](Nc2cccc3nc(C(F)(F)F)cn23)CC1)c1ccc(F)cc1"
target_or_system = "human MRGPRX2 (Homo sapiens, UniProt Q96LB1)"
endpoint_name = "pIC50"
recorded_result = "> 7.30"

[[record]]
molecular_string = "O=C(N[C@H]1CC[C@@H](Nc2cccc3nc(C(F)(F)F)cn23)CC1)c1ccn2cncc2c1"
target_or_system = "human MRGPRX2 (Homo sapiens, UniProt Q96LB1)"
endpoint_name = "pIC50"
recorded_result = "> 7.30"

[[record]]
molecular_string = "O=C(N[C@H]1CC[C@@H](Nc2cccc3nc(C(F)(F)F)cn23)CC1)c1ccnc2cn[nH]c12"
target_or_system = "human MRGPRX2 (Homo sapiens, UniProt Q96LB1)"
endpoint_name = "pIC50"
recorded_result = "> 7.30"


Short answer for `COc1ccc(C(=O)N[C@H]2CC[C@@H](Nc3cccc4sc(C(F)(F)F)nc34)CC2)cc1` : pIC50 was < 6.00

Short answer for `O=C(N[C@H]1CC[C@@H](Nc2cccc3nc(C(F)(F)F)cn23)CC1)c1cn(C(F)F)nc1Cl` : pIC50 was > 7.30

Short answer for `Cn1cc(C(=O)N[C@H]2CC[C@@H](Nc3cccc4nc(C(F)(F)F)cn34)CC2)c(N)n1` : pIC50 was > 7.30

Short answer for `O=C(N[C@H]1CC[C@@H](Nc2cccc3nc(C(F)(F)F)cn23)CC1)c1cn(CC(F)(F)F)nc1C(F)F` : pIC50 was > 7.30

Short answer for `COc1ccc(C(=O)N[C@@H]2CCC[C@H](Nc3cc(F)cc4nc(C(F)(F)F)cn34)C2)cc1` : pIC50 was 7.00 to 7.29

====

IC50 by entry:
- target-or-system: human MRGPRX2 (Homo sapiens, UniProt Q96LB1)
- assay-info: MRGPRX2 Activity: IP-One HTRF antagonist assay in CHO cells stably expressing human MRGPRX2, versus Cortistatin-14
- experimental-parameters: versus 0.3 uM Cortistatin-14 agonist, IP-1 HTRF, read-out: MRGPR2 Antagonist Activity

// below: answered molecules
[[record]]
molecular_string = "COc1ccc(C(=O)N[C@H]2CC[C@@H](Nc3cccc4nc(C(F)F)cn34)CC2)c(Cl)c1"
target_or_system = "human MRGPRX2 (Homo sapiens, UniProt Q96LB1)"
recorded_result = "51 to 100 nM"

[[record]]
molecular_string = "COc1ccc(C(=O)N[C@H]2CC[C@@H](Nc3cccc4nn(C(F)(F)F)cc34)CC2)cc1"
target_or_system = "human MRGPRX2 (Homo sapiens, UniProt Q96LB1)"
recorded_result = "51 to 100 nM"

[[record]]
molecular_string = "O=C(N[C@H]1CC[C@@H](Nc2cccc3nc(C(F)F)cn23)CC1)c1ccnc(NCC(F)F)c1"
target_or_system = "human MRGPRX2 (Homo sapiens, UniProt Q96LB1)"
recorded_result = "< 50 nM"


Attention now turns to another entry.
Short answer for `O=C(N[C@H]1CC[C@@H](Nc2cccc3nc(C(F)F)cn23)CC1)c1nn2ccccc2c1NCC(F)F` : IC50 was 101 to 500 nM
